# Test system: TK-10 renal
# assay_notes: NCI tumour cell line growth inhibition, 48 h
measured_attribute: TGI

Data request: State TGI (TK-10 renal) of `CC1(C)CC(=O)c2c(nc3c(ccc4ccccc43)c2-c2ccc(NC(=O)CCCC(=O)Nc3ccc(-c4c5c(nc6c4ccc4ccccc46)CC(C)(C)CC5=O)cc3)cc2)C1` .
Data returned: > 100 µM

Data request: State measured TGI of the compound `CCOc1ccc2nc3cc(N=Nc4ccc(N)nc4N)ccc3c(N)c2c1` with TK-10 renal.
Data returned: 28.6 µM

Data request: Please respond with reported TGI (system TK-10 renal) for COC(=O)C1=C(c2cc(OC)c(OC)c(OC)c2)OC(c2ccc3c(c2)OCO3)C1 (centres undefined) .
Data returned: > 100 µM

Data request: Give TK-10 renal TGI for the following compound: `Cn1c(=O)c2c(ncn2Cc2ccc(O)c([N+](=O)[O-])c2)n(C)c1=O`
Data returned: > 100 µM

Data request: Would you please give the reported TGI of O=C1OC(CC(=O)c2ccccc2Cl)C(Cl)=C1Cl (centres undefined) with TK-10 renal?
Data returned: > 100 µM

Data request: Give TGI only, for `CNC(=S)NC(=S)N(C)C` , using TK-10 renal data.
Data returned: > 100 µM

Data request: Consider the compound C[C@]12CC[C@H](OC3OC(O)C(O)C(O)C3O)C=C1CCC1C2CC[C@]2(C)[C@@H](c3ccc(=O)oc3)CC[C@]12O (some centres undefined) tested on TK-10 renal; state its TGI.
Data returned: 0.0422 µM

Data request: Specify TGI for COc1cc(OC)cc(C2C(C#N)=C(N)Oc3c2ccc2ccc(O)cc32)c1 (centres undefined) , system TK-10 renal.
Data returned: 19.6 µM

Data request: Using TK-10 renal as the test system, report measured TGI of `CCn1ncc(Oc2c(Cl)cc(N)cc2Cl)c(Cl)c1=O` .
Data returned: > 100 µM

* * *

# Test system: SK-MEL-2 melanoma
# assay_notes: NCI tumour cell line growth inhibition, 48 h
I'd appreciate it if you could supply TGI values for the items below.

Data request: Indicate its recorded TGI; the compound in question is `O=[N+]([O-])c1ccc(N=Nc2c(O)[nH]c3ccc(Br)cc23)cc1`
Data returned: 99.2 µM

Data request: Consider the compound COc1ccc(C(O)c2cc3c(N)c(C(=O)Nc4cccc(OC)c4)sc3nc2C)cc1 (stereo not given) and give its recorded TGI.
Data returned: > 50 µM

Data request: Look up TGI of Clc1ccc(C2ON=C(c3ccccc3)N2C23CC4CC(CC(C4)C2)C3)c(Cl)c1 (stereo not given) and report it.
Data returned: > 10 µM

Data request: Report measured TGI; entry is `O=[N+]([O-])c1nccn1COCCI`
Data returned: > 100 µM

Data request: Output measured TGI for this item: CC(=O)OCC1OC(N2C(=S)N[C@H]([C@@H](O)[C@H](O)[C@H](O)CO)[C@H]2O)C(OC(C)=O)C(OC(C)=O)C1OC(C)=O (stereo not given in full)
Data returned: > 100 µM

* * *

Provide the recorded TGI for the entries that follow.
# Tested on: SF-268 CNS
# assay_notes: NCI tumour cell line growth inhibition, 48 h

Data request: Lab note: SF-268 CNS assay, enter TGI for `CCn1ncc(Oc2c(Cl)cc(N)cc2Cl)c(Cl)c1=O` here
Data returned: > 100 µM

Data request: Provide TGI, tested on SF-268 CNS, for `O=C1C(c2ccccc2)=[N+]([O-])c2cc([N+](=O)[O-])c(/C(Cl)=C/c3ccccc3)cc21` .
Data returned: > 100 µM

Data request: Report TGI under test system SF-268 CNS for `Clc1ccc(CSC2=NCCN2)cc1Cl` .
Data returned: 42.5 µM

Data request: Given CC(C)OP(=O)(c1ccccc1)c1ccc2c(c1)OCCOCCOCCOCCO2 (centres undefined) , report its TGI on SF-268 CNS.
Data returned: > 100 µM

* * *

# System: SK-MEL-28 melanoma
# assay_notes: NCI tumour cell line growth inhibition, 48 h
Provide the recorded TGI for the entries that follow.
Express your answer in µM, writing the number without its unit.

Data request: Give me measured TGI, please, for this compound: `COc1cc2c(cc1OCCCCCN1CCN(c3cc(=O)oc4ccccc34)CC1)N=C[C@@H]1CCCN1C2=O`
Data returned: 1.34

Data request: Please supply the value of reported TGI for the item `Clc1ccc(CSC2=NCCN2)cc1Cl`
Data returned: 35.1

Data request: Consider the compound COC(=O)c1c2c(c3[nH]c4ccccc4c3c1C(=O)OC)C(=O)C1=C(C2=O)C2(Cl)C(Cl)C(Cl)C1(Cl)C2(Cl)Cl (stereo not given) and give its recorded TGI.
Data returned: 2.97

* * *

# Tested on: TK-10 renal
# assay_notes: NCI tumour cell line growth inhibition, 48 h
*1 amine or outer side, *2 acyl side, *3 side chain or, on linkers, in order; H or OH if unused. Where a SMILES comes first, the peptide text is derived from it. Bridges are numbered along the chain shown (N, C = ends). [ ]: non-standard residue; d: D form. The star is where a group is joined. Phe(3,5-F2) = N[C@@H](Cc1cc(F)cc(F)c1)C(=O)O; Pro(4R-Me) = C[C@H]1CN[C@H](C(=O)O)C1; aThr = C[C@H](O)[C@H](N)C(=O)O; Pip = O=C(O)[C@@H]1CCCCN1; X10 = Fc1cc(C2CC2)ccc1N*; Abu = CC[C@H](N)C(=O)O; CO = O=C([*:1])[*:2]
measured_attribute: TGI

Data request: Give TGI for the following compound: `O=[N+]([O-])c1nccn1COCCI`
Data returned: > 100 µM

Data request: Identify TGI associated with the compound `CCC[C@H](N[C@H]1CCc2cc(F)cc(F)c2C1)C(=O)Nc1cn(C(C)(C)CNCC(C)(C)C)cn1`
Data returned: > 100 µM

Data request: Answer with the recorded TGI of CC[C@@H]1NC(=O)[C@@H]2CCCCN2C(=O)[C@@H]2CCCN2C(=O)[C@@H](NC(=O)[C@H](Cc2cc(F)cc(F)c2)NC(=O)Nc2ccc(C3CC3)cc2F)[C@H](C)OC(=O)[C@@H]2C[C@@H](C)CN2C1=O ({X10-CO}-[Phe(3,5-F2)][aThr]P[Pip][Abu][Pro(4R-Me)]; ester 2-C) only.
Data returned: > 39.1 µM

Data request: Report TGI for `CCOC(=O)c1c(-c2ccccc2)oc(=O)c(Cc2cccc3cccnc23)c1-c1ccccc1`
Data returned: > 10 µM

* * *

I'd be grateful if you could share measured TGI for these entries.
# System: ACHN renal
# assay_notes: NCI tumour cell line growth inhibition, 48 h

Data request: Report value only: TGI, ACHN renal, O=C1CCC(c2nc3cc(Cl)ccc3o2)C(=O)N1 (centres undefined)
Data returned: > 100 µM

Data request: Please indicate recorded TGI of `Cc1nc2ccccc2c(/C=C/c2ccc(Cl)cc2)c1C(=O)/C=C/c1ccc(F)cc1` measured with ACHN renal.
Data returned: 2.83 µM

Data request: Fill in: TGI on ACHN renal, entry `O=c1c(C(=Nc2ccccc2)c2ccccc2)c[nH]n1-c1ccccc1`
Data returned: > 100 µM

Data request: Return reported TGI for target or system ACHN renal, item `COc1ccc(OC)c(NC(=O)c2c(Cl)c(Cl)c(Cl)c(Cl)c2-c2nc3ccccc3[nH]2)c1` .
Data returned: > 100 µM

Data request: Lab note: ACHN renal assay, enter TGI for `CCOC(=O)C1(C(=O)OCC)OC(=O)NC2=C1CCCC2` here
Data returned: > 100 µM

Data request: Name the value of TGI reported for `Cn1c(-c2c(N)n(Cc3ccc(C(F)(F)F)cc3)c3nc(C#N)c(C#N)nc23)nc2ccccc21` when tested on ACHN renal.
Data returned: > 100 µM

Data request: // fetch TGI; item: `N.N.NCCCCCCN.O=C([O-])CCl.O=C([O-])CCl.O=C([O-])CCl.O=C([O-])CCl.[Pt+4].[Pt+4]` ; system: ACHN renal
Data returned: > 50 µM

Data request: Enter TGI (test system ACHN renal) for `CC1(C)CC(=O)c2c(nc3c(ccc4ccccc43)c2-c2ccc(NC(=O)CCCC(=O)Nc3ccc(-c4c5c(nc6c4ccc4ccccc46)CC(C)(C)CC5=O)cc3)cc2)C1`
Data returned: > 100 µM

Data request: Fetch value of TGI on ACHN renal for COc1ccc(Cc2nc3cc([N+](=O)[O-])ccc3n2C[C@@H]2CCCN3CCCCC23)cc1 (some centres undefined) .
Data returned: > 100 µM

* * *

# System: KM12 colon
# assay_notes: NCI tumour cell line growth inhibition, 48 h
measured_attribute: TGI

Data request: Return the recorded TGI value; entry: `COc1cc2oc(-c3ccc4c(c3)OCO4)c(OC)c(=O)c2c(OC)c1OC`
Data returned: > 100 µM

Data request: Hello, please tell me recorded TGI for this one: `COc1ccc(CN2C(=O)C(Cl)=C(Nc3cccc(O)c3)C2=O)cc1`
Data returned: 21.6 µM

Data request: Identify TGI associated with the compound `COc1ccc(-c2c(C#N)c(N)nc3c2COc2ccc(F)cc2-3)cc1OC`
Data returned: > 100 µM

Data request: Annotate the compound `O=C(CC(Cl)(Cl)C(Cl)(Cl)Cl)c1ccccc1` with its measured TGI.
Data returned: 14.8 µM

Data request: Fill in TGI for record COC(=O)C(C/C=C(\C)c1ccccc1)C(C)=O (configuration not stated)
Data returned: > 100 µM

Data request: Write down TGI measured for item `O=C(/C=C/c1cccc([N+](=O)[O-])c1)c1cccnc1`
Data returned: 43.3 µM

Data request: Tell me its TGI given `O=Cc1c(Cn2ccnc2)c2cc([N+](=O)[O-])ccc2n1Cc1ccccc1` as the entry.
Data returned: > 100 µM

Data request: Provide measured TGI value, entry: C=CCCC1CCCCC/C1=N\N(C)C (configuration not stated)
Data returned: > 100 µM

Data request: State its TGI for this compound: `Cc1c2nc3ccccc3sc-2cc(=O)c1C`
Data returned: > 100 µM

Data request: Retrieve TGI measured for `O=C(O)c1sccc1O` and print it.
Data returned: > 100 µM

Data request: Fill in reported TGI for this entry: `COc1ccc(OC)c(NC(=O)c2c(Cl)c(Cl)c(Cl)c(Cl)c2-c2nc3ccccc3[nH]2)c1`
Data returned: > 100 µM

Data request: Return TGI for the following compound: COc1ccc2c3c1O[C@H]1C(=O)C=CC4(n5[nH]c(=O)n(-c6ccccc6)c5=O)C(C2)N(C)CCC314 (some centres not stated)
Data returned: > 100 µM

Data request: Give me measured TGI, please, for this compound: `CCOC(=O)C1(C(=O)OCC)OC(=O)NC2=C1CCCC2`
Data returned: > 100 µM

Data request: Fill in reported TGI for this entry: CCOC(=O)C1(c2ccccc2)CCCNCC1 (configuration not stated)
Data returned: > 100 µM

Data request: Fill in TGI for record CC(=O)/C=C\C1CC2C=CC1C2 (configuration not stated)
Data returned: > 100 µM

Data request: Tell us which TGI value is on record for `COC(=O)[C@]12CC[C@H]3CN(C(=O)OCc4ccccc4)[C@H]([C@H]31)[C@H](C(=O)OCC[Si](C)(C)C)N2S(=O)(=O)c1ccc(C)cc1`
Data returned: > 100 µM

Data request: Input `Nc1c(C(=O)Nc2ccccn2)sc2nc3c(cc12)CCCCC3` , output reported TGI.
Data returned: > 50 µM

Data request: Recall and state the measured TGI for `O=[N+]([O-])c1cccc(-c2ncnc(-c3cccc([N+](=O)[O-])c3)n2)c1` .
Data returned: > 100 µM

Data request: Return reported TGI. Input compound: `Cc1nc2ccccc2c(=O)n1NC(=S)Nc1ccccc1`
Data returned: > 100 µM

Data request: Please give the documented TGI of `CC(C)(C)OC(=O)NCC(c1c[nH]c2ccc(Br)cc12)c1c[nH]c2ccc(Br)cc12`
Data returned: 19.4 µM

Data request: # return recorded TGI for input `Cn1c(/C=C/CO)c(CO)c2c1C(=O)C=C(N1CC1)C2=O`
Data returned: 0.0172 µM

Data request: Return reported TGI. Input compound: `COc1cc(NC(=O)c2ccc(C(F)(F)F)nc2Nc2ccc(Cl)cc2C)cc(OC)c1OC`
Data returned: 13.2 µM
